Values were extracted from ChEMBL document CHEMBL1151920.

- Tested on: Staphylococcus aureus
- assay.info: Antibacterial activity against methicillin-resistant Staphylococcus aureus USA300 after 18 hrs by liquid dilution method
- Type: functional
- setup.conditions: USA300, 18 h
quantity.measured: MIC

CCC(=O)O[C@H](C)[C@H]1C(=O)N2C(C(=O)OCc3ccc([N+](=O)[O-])cc3)=CS[C@@H]12 > 200 µg/mL
CC(=O)N[C@H](C(=O)O[C@H](C)[C@H]1C(=O)N2C(C(=O)OCc3ccc([N+](=O)[O-])cc3)=CS[C@@H]12)C(C)C > 200 µg/mL

Query: State the recorded MIC for this entry: COCCOCO[C@H](C)[C@H]1C(=O)N2C(C(=O)OCc3ccc([N+](=O)[O-])cc3)=CS[C@@H]12
Result: > 200 µg/mL

Query: State the recorded MIC for this entry: CCNC(=O)O[C@H](C)[C@H]1C(=O)N2C(C(=O)OCc3ccc([N+](=O)[O-])cc3)=CS[C@@H]12
Result: 100 µg/mL

Query: State the recorded MIC for this entry: C[C@@H](O)[C@H]1C(=O)N2C(C(=O)OCc3ccc([N+](=O)[O-])cc3)=CS[C@@H]12
Result: > 200 µg/mL

Query: State the recorded MIC for this entry: CC(C)NC(=O)O[C@H](C)[C@H]1C(=O)N2C(C(=O)OCc3ccc([N+](=O)[O-])cc3)=CS[C@@H]12
Result: 100 µg/mL

Query: State the recorded MIC for this entry: CCOCO[C@H](C)[C@H]1C(=O)N2C(C(=O)OCc3ccc([N+](=O)[O-])cc3)=CS[C@@H]12
Result: > 200 µg/mL

Query: State the recorded MIC for this entry: CC(=O)N[C@@H](C)C(=O)O[C@H](C)[C@H]1C(=O)N2C(C(=O)OCc3ccc([N+](=O)[O-])cc3)=CS[C@@H]12
Result: > 200 µg/mL
